Values compiled from the supplement of paper PMC13380429.

Test system: Vero E6 infected with SARS-CoV-2
Experiment description: inhibition of SARS-CoV-2 cytopathic effect; higher = more antiviral protection, active = above 15
Recorded conditions: 8.33 nM; 48 h
Experimental readout: inhibition of SARS-CoV-2 cytopathic effect (%)
Reply numerically in %, unit not repeated.

For this compound ( CCn1nc(C2CCN(C(=O)CCO)CC2)nc1-c1cnc(N)c(-c2nnc(C(C)(C)C)o2)n1 ), measured inhibition of SARS-CoV-2 cytopathic effect is 1.6

// inhibition of SARS-CoV-2 cytopathic effect lookup, compound = O=c1c(O)c(-c2ccc(O)cc2)oc2cc(O)cc(O)c12 [kaempferol] , result: 12

GET /value?item= COc1cc(/C=C2\CCC/C(=C\c3ccc(O)c(OC)c3)C2=O)ccc1O [cyclovalone] &field=inhibition of SARS-CoV-2 cytopathic effect returns 0.77

Measured inhibition of SARS-CoV-2 cytopathic effect, O=C(O)CCCCC(=O)O [adipic-acid] : -3

Given item CCCCC(=O)O[C@]1(C(=O)CO)CC[C@H]2[C@@H]3CCC4=CC(=O)CC[C@]4(C)[C@H]3[C@@H](O)C[C@@]21C [hydrocortisone-valerate] , the value recorded as its inhibition of SARS-CoV-2 cytopathic effect is 3.88

Short answer for c1ccc(Cn2c(N3CCNCC3)nc3ccccc32)cc1 [lerisetron] : inhibition of SARS-CoV-2 cytopathic effect was -0.34

# inhibition of SARS-CoV-2 cytopathic effect (compound: CCCCCCc1ccc(O)cc1O.Nc1c2ccccc2nc2ccccc12 [acrisorcin] ) is 2.93

The measured inhibition of SARS-CoV-2 cytopathic effect associated with COc1cc(CCc2cc(NC(=O)c3ccc(N4CC(C)NC(C)C4)cc3)n[nH]2)cc(OC)c1 (stereo not drawn) reads 1.81
